tested on: HOP-92 NSCLC; experiment: NCI tumour cell line growth inhibition, 48 h
Measured attribute: TGI (µM)
Answer with a number only, understood to be in µM.

                                   molecule   target_desc  experimental_result
0          O=NN(CCCl)C(=O)Nc1ccc(Cl)c(Cl)c1  HOP-92 NSCLC                 97.8
1  C/C(=C\CCc1ccsc1)CC/C=C(\C)CCCN1CCN(CCO)CC1  HOP-92 NSCLC                 7.48
2  CCc1cccc(C(C)C)c1NC1=C([n+]2ccc(C)cc2)C(=O)c2ccccc2C1=O  HOP-92 NSCLC                 7.06
3    c1ccc(-c2sc(-c3ccccc3)c3c2C2CCC3C2)cc1  HOP-92 NSCLC                 47.9
4  Cc1cc(N2CCN(C)CC2)nc(N(CCNc2ccnc3cc(Cl)ccc23)Cc2ccco2)n1  HOP-92 NSCLC                 14.9
5  Cc1ccc(-c2c3c(N)nc(-c4ccncc4)nc3nc3c2c(C)nn3-c2ccccc2)cc1  HOP-92 NSCLC                   22
6  CS(=O)/C(C#N)=C\C=C\c1cccc(Cl)c1 (stereo not drawn)  HOP-92 NSCLC                    7
7  CCOP(=O)(CCN1CCN(CCCCCOc2cc3c(cc2OC)C(=O)N2CCC[C@H]2C=N3)CC1)OCC  HOP-92 NSCLC                 94.9
8  C=C1C(=O)O[C@H]2[C@H]1CC/C(COC(=O)c1cccc3ccccc13)=C\CC[C@@]1(C)O[C@@H]21  HOP-92 NSCLC                 2.61
9  O=C(CCCCCNC1=CC(=O)c2ccccc2C1=O)NCCC[Te]c1ccccc1  HOP-92 NSCLC                 1.65

Reported TGI (HOP-92 NSCLC) for entry `O=CN1CCN(C(=O)c2ccc(Cl)cc2)C1=S` is 14.9

Reported TGI (HOP-92 NSCLC) for entry `O=C1/C(=C/c2ccc3c(c2)OCO3)Sc2scc(-c3ccc(O)c(O)c3)[n+]21` is 7.58

Reported TGI (HOP-92 NSCLC) for entry `Cc1cc(Br)c2nsnc2c1[N+](=O)[O-]` is 22.1

###

tested on: SF-295 CNS; test: NCI tumour cell line growth inhibition, 48 h
Documented TGI across a set of molecules

Consider the worked cases shown below.
>>> df
                                   molecule  experimental_result
0  CC1(C)C(=O)CCC(=O)C(C)(C)C2=CC=C(O2)C(C)(C)C(=O)CCC(=O)C(C)(C)C2=CC=C1O2             > 100 µM
1           O=CN1CCN(C(=O)c2ccc(Cl)cc2)C1=S                76 µM
2       Cc1ccc(-n2nnc3c(sc4ccccc43)c2=O)cc1              14.5 µM
3  Cc1ccc(SC2C(C)(C)N(C(C)C)P2(=O)N(C(C)C)C(C)C)cc1 (centres undefined)             > 100 µM

TGI reported for this molecule `O=C(OCC(Cl)(Cl)Cl)N1CC[C@@H](C2CCCCC2)C1` : 38.9 µM
